# Test system: HOP-62 NSCLC
# PROCEDURE SUMMARY: NCI-60 one-dose screen, 48 h (100 = growth as untreated, 0 = no growth, -100 = all killed)
# MEASUREMENT CONDITIONS: 10 µM unless noted
# Description: Growth inhibition of the HOP-62 human Non-Small Cell Lung tumor cell line is measured as a screen for anti-cancer activity. Cells are grown in 96 well plates and exposed to the test compound for 48 hours. Compounds are tested at a single concentration, which is 10^-5 M for most compounds. The reported endpoint is percent growth (GI% or GIPRCNT), where numbers from 0 - 100% represent growth inhibition, and numbers from -100% - 0 represent cell death. […]
Compounds without any hit were thinned out: in the full panel of roughly 83,000, 20% have a hit.

[
  {
    "COMPOUND": "COc1cc2nc(C(=O)N3CCCCC3)cc(Nc3ccccc3)c2cc1OC",
    "growth [%]": 96
  },
  {
    "COMPOUND": "Cc1cccc(CC(=O)c2ccccc2)n1",
    "growth [%]": 78.4
  },
  {
    "COMPOUND": "COC(=O)c1ccc2c(c1)Oc1ccc(Cl)cc1-c1cc(C)nn1-2",
    "growth [%]": 37.6
  },
  {
    "COMPOUND": "CCCc1nn2c(CCC(=O)c3nc4ccc([N+](=O)[O-])cc4[nH]3)nnc2s1",
    "growth [%]": 106
  },
  {
    "COMPOUND": "S=c1ssnc1-c1ccccn1",
    "growth [%]": 47.7
  },
  {
    "COMPOUND": "O=C1c2ccccc2OC=C(c2ccccc2)N1CCCCN1CCCCC1",
    "growth [%]": 38.1
  },
  {
    "COMPOUND": "O=[N+]([O-])c1ccccc1NC1c2ccccc2Oc2ccccc21",
    "growth [%]": 70
  },
  {
    "COMPOUND": "OCc1cn(-c2ccc(Cl)cc2)nc1-c1ccc(O)cc1",
    "growth [%]": 81.9
  },
  {
    "COMPOUND": "COc1ccc(C[C@H](N)C(=O)N[C@@H]2[C@@H](CO)OC(n3cnc4c(N(C)C)ncnc43)[C@@H]2O)cc1 (some centres not stated)",
    "growth [%]": -57.8
  },
  {
    "COMPOUND": "COc1ccc(-c2c(C#N)cnc(N)c2-c2nc3cc(C)c(C)cc3[nH]2)cc1",
    "growth [%]": 57
  },
  {
    "COMPOUND": "COc1cc(/C=C/C(=O)c2c(C)n([O-])c3cc(C)c(C)cc3[n+]2=O)cc(OC)c1OC",
    "growth [%]": 74.6
  },
  {
    "COMPOUND": "COc1ccc(/C=C/C(=O)c2ccc(NC(=O)CSc3nnc(-c4cc(OC)c(OC)c(OC)c4)o3)cc2)cc1",
    "growth [%]": 43.8
  }
]

----------
Examples of molecules with documented growth follow.
# System: CCRF-CEM leukemia
# PROCEDURE SUMMARY: NCI-60 one-dose screen, 48 h (100 = growth as untreated, 0 = no growth, -100 = all killed)
# MEASUREMENT CONDITIONS: 10 µM unless noted
This is part of a sample that, as a whole, favours compounds with a hit. Of some 83,000 tested, about 20% had one in any assay.
QUANTITY: growth (%)

[
  {
    "MOLECULE": "COc1ccc(/C=C/C(=O)c2ccc(Oc3ncnc4ccccc34)cc2)cc1OC",
    "QUANTITY": "growth",
    "OBSERVED VALUE": 46.4
  },
  {
    "MOLECULE": "CC(C)CNCC(=O)Nc1ccc(Cc2ccc(NC(=O)CNCC(C)C)cc2)cc1",
    "QUANTITY": "growth",
    "OBSERVED VALUE": 26.4
  },
  {
    "MOLECULE": "Cn1c2ccccc2c2ssc(=S)c21",
    "QUANTITY": "growth",
    "OBSERVED VALUE": 116
  },
  {
    "MOLECULE": "CC(C)(C)OC(=O)NCc1cccc(N=C=S)c1",
    "QUANTITY": "growth",
    "OBSERVED VALUE": 3.13
  },
  {
    "MOLECULE": "O=C1COc2ccccc2C(=O)N1CCCCN1CCCCC1",
    "QUANTITY": "growth",
    "OBSERVED VALUE": 69.4
  },
  {
    "MOLECULE": "C#C[C@@]1(O)[C@@H](CO)O[C@@H](n2cc(Br)c3c(Cl)ccnc32)[C@@H]1O",
    "QUANTITY": "growth",
    "OBSERVED VALUE": 12.8
  },
  {
    "MOLECULE": "CC1(C)N=C(N)N=C(N)N1c1ccc(OCC(=O)Nc2ccccc2)c(Cl)c1",
    "QUANTITY": "growth",
    "OBSERVED VALUE": 28.8
  },
  {
    "MOLECULE": "CCCCOc1nc2ccc(Cl)cc2cc1/C=C/C(=O)/C=C/c1ccc(OC)cc1",
    "QUANTITY": "growth",
    "OBSERVED VALUE": 87.2
  },
  {
    "MOLECULE": "CC(C)[C@@H]1NC(=O)[C@]2(C)CSC(=N2)c2ccnc(c2)CNC(=O)C[C@@H](/C=C/CCS)OC1=O",
    "QUANTITY": "growth",
    "OBSERVED VALUE": 16
  },
  {
    "MOLECULE": "O=C(Nc1ccc(-n2cc(-c3ccncc3)c(-c3ccc(O)c(Cl)c3)n2)cc1)c1cc(C(F)(F)F)cc(C(F)(F)F)c1",
    "QUANTITY": "growth",
    "OBSERVED VALUE": 31.1
  },
  {
    "MOLECULE": "Cc1ccc(-c2cn3cc([N+](=O)[O-])ccc3n2)cc1",
    "QUANTITY": "growth",
    "OBSERVED VALUE": 52.6
  },
  {
    "MOLECULE": "COc1ccc(Cl)cc1NC(=O)c1cc2c([nH]1)-c1nc(N)sc1CCC2",
    "QUANTITY": "growth",
    "OBSERVED VALUE": 86.7
  },
  {
    "MOLECULE": "COc1cc(/C=C/C(=O)c2c(C)[n+]([O-])c3ccccc3[n+]2[O-])ccc1O",
    "QUANTITY": "growth",
    "OBSERVED VALUE": 124
  },
  {
    "MOLECULE": "CCOc1ccc(-n2c(-c3cc(OC)c(OC)c(OC)c3)nnc2-c2ccc(OC)cc2N)cc1",
    "QUANTITY": "growth",
    "OBSERVED VALUE": 42.3
  },
  {
    "MOLECULE": "COc1cc(NC(C)CCCN2C(=O)c3ccccc3C2=O)c2nc(C)ccc2c1OC (configuration not stated)",
    "QUANTITY": "growth",
    "OBSERVED VALUE": -56.3
  },
  {
    "MOLECULE": "CCCCCCCC(=O)SCC/C=C/[C@@H]1CC(=O)NCc2nc(cs2)C2=N[C@@](C)(CS2)C(=O)N[C@@H](C(C)C)C(=O)N1",
    "QUANTITY": "growth",
    "OBSERVED VALUE": 21.3
  },
  {
    "MOLECULE": "O=C(Nc1cccc([N+](=O)[O-])c1)Nc1cccc([N+](=O)[O-])c1",
    "QUANTITY": "growth",
    "OBSERVED VALUE": 15.5
  },
  {
    "MOLECULE": "O=C(N/N=C1\\SCC(=O)N1c1ccccc1)c1cc(-c2cc3ccccc3o2)nn1-c1ccccc1",
    "QUANTITY": "growth",
    "OBSERVED VALUE": -84.9
  },
  {
    "MOLECULE": "CCCCCCCCCCCCCCCCCCNCc1ccc(Cl)cc1",
    "QUANTITY": "growth",
    "OBSERVED VALUE": -45.9
  },
  {
    "MOLECULE": "O=C(Nc1ccc(-n2cc(-c3ccncc3)c(-c3ccc(O)c(Cl)c3)n2)cc1)Nc1cc(C(F)(F)F)cc(C(F)(F)F)c1",
    "QUANTITY": "growth",
    "OBSERVED VALUE": 55.8
  },
  {
    "MOLECULE": "COc1ccc2c(c1)O/C(=C/c1ccc(OCC(=O)Nc3ccc(S(N)(=O)=O)cc3)cc1)C2=O",
    "QUANTITY": "growth",
    "OBSERVED VALUE": 94.6
  },
  {
    "MOLECULE": "O=[N+]([O-])c1ccc(NS(=O)(=O)c2cc(Cl)ccc2Cl)c2ccccc12",
    "QUANTITY": "growth",
    "OBSERVED VALUE": 29.1
  },
  {
    "MOLECULE": "COc1ccc2c(c1)nnn1c3ncccc3c(N=O)c21",
    "QUANTITY": "growth",
    "OBSERVED VALUE": -22.8
  },
  {
    "MOLECULE": "OCCOCC(F)(F)F",
    "QUANTITY": "growth",
    "OBSERVED VALUE": -0.0215
  },
  {
    "MOLECULE": "COc1cc(/C=C/C(=O)c2c(C)n([O-])c3cc(C)c(C)cc3[n+]2=O)cc(OC)c1OC",
    "QUANTITY": "growth",
    "OBSERVED VALUE": 38
  },
  {
    "MOLECULE": "COC(=O)Nc1nc2ccc(Sc3ccccc3)cc2[nH]1",
    "QUANTITY": "growth",
    "OBSERVED VALUE": 10.7
  },
  {
    "MOLECULE": "CC(C(=O)O)N1C(N)=NNC1c1ccccc1O (configuration not stated)",
    "QUANTITY": "growth",
    "OBSERVED VALUE": 82.7
  },
  {
    "MOLECULE": "CCOc1ccc(NC(=O)Nc2cc(C(C)C)ccc2C)cc1",
    "QUANTITY": "growth",
    "OBSERVED VALUE": 44.4
  },
  {
    "MOLECULE": "Cc1ccc(Cn2cc(COc3ccc4c5ccnc(C)c5n(CCCc5ccccc5)c4c3)nn2)cc1",
    "QUANTITY": "growth",
    "OBSERVED VALUE": 91.9
  },
  {
    "MOLECULE": "COc1ccc(-c2nn(-c3ccc(NC(=O)c4cc(C(F)(F)F)cc(C(F)(F)F)c4)cc3)cc2-c2ccncc2)cc1Cl",
    "QUANTITY": "growth",
    "OBSERVED VALUE": 59
  },
  {
    "MOLECULE": "Cc1cc[n+](CCCC[n+]2ccc(C)cc2)cc1",
    "QUANTITY": "growth",
    "OBSERVED VALUE": 91.7
  },
  {
    "MOLECULE": "C=C1C(=O)O[C@H]2[C@H]1CC/C(C(=O)NCCOCCOCC(=O)Nc1ccc(OC)c(C(N)=O)c1O)=C\\CC[C@@]1(C)O[C@@H]21",
    "QUANTITY": "growth",
    "OBSERVED VALUE": 64.6
  }
]
